Cited source: patent US12559863B2

target: Aβ42-GFP (Homo sapiens); construct: a chimeric fusion of the human Aβ(1-42) peptide (Aβ42) with GFP; expressed in transfected cells; host or cells: E. coli BL21(DE3); assay: High-throughput sequencing of pSICLOPPS vectors isolated after bacterial sorting for enhanced Aβ42-GFP fluorescence; conditions: Table 4
Measured Reads/Total hexapeptide reads (%), listed per entry.

| SUBSTANCE | TARGET_ENTITY | RESULT_UNIT | Reads/Total hexapeptide reads (%) |
| --- | --- | --- | --- |
| TPVWLD [AβC6-80] | Aβ42-GFP (Homo sapiens) | % | 0.012 |
| TPPWFD [AβC6-44] | Aβ42-GFP (Homo sapiens) | % | 0.064 |
| TPALFD [AβC6-68] | Aβ42-GFP (Homo sapiens) | % | 0.022 |
| TPGWFD [AβC6-55] | Aβ42-GFP (Homo sapiens) | % | 0.040 |
| TCSWFD [AβC6-27] | Aβ42-GFP (Homo sapiens) | % | 0.138 |
| TPVLVD [AβC6-48] | Aβ42-GFP (Homo sapiens) | % | 0.052 |
| TPALVD [AβC6-53] | Aβ42-GFP (Homo sapiens) | % | 0.046 |
| TLEFFD [AβC6-4] | Aβ42-GFP (Homo sapiens) | % | 5.978 |
| TSVEYE [AβC6-41] | Aβ42-GFP (Homo sapiens) | % | 0.068 |
| TPLWFN [AβC6-40] | Aβ42-GFP (Homo sapiens) | % | 0.070 |
| TPGLVD [AβC6-58] | Aβ42-GFP (Homo sapiens) | % | 0.031 |
